- EXPERIMENT_NOTES: soluble fraction after stress (log2 fold change); higher = more stays soluble; pooled small domains, quantitative proteomics
- APPLIED_CONDITIONS: stress: 50 degC
REPORTED_ENDPOINT: soluble fraction (log2)

See these solved cases before continuing.
HMPALELLVESKKPLLIHGEKIAEDINLFDREKYFIDDELIRIVKEFPSLKIILEHVSSKYGAD
-1.5
HMAEDGNMTFEEYAKRWLARQVRYAPSTLESYRRMLGRVYPFIGAIPINRLRPIALENLLAELRKRT
-0.48
HMSTILERLIMLQEQSGMNQKQLQKELGLSNSAFSDWKKGKGRPSVEALVRFSEFFGVSMDWLAFG
-2.09

Quick one: soluble fraction (log2) for HMEPLKLGDATGDGKINLQDVLEMQKHMAGILVLKGKFFTAADVNGNGKIELVDVLSVQKYLAGVTAEV ?
0.00939

====

- EXPERIMENT_NOTES: soluble fraction after stress (log2 fold change); higher = more stays soluble; pooled small domains, quantitative proteomics
- APPLIED_CONDITIONS: stress: 50 degC
Measured soluble fraction (log2) of individual entries
Lab note: write the figure by itself, no unit.

See these solved cases before continuing.
HMGFSERLAQAMSHAGYTQGGLAKAVGMAQSSVNKLLNNANSSRKTVEIASVLGVRPEWLSTGEGDML
0.00207
HMEKKKVPEVAGQDEAAARNVMTNSGFVVDVEQKEDDNVPAGKVITTAPAGGVEVVEGTKIILYVSKGSN
0.113
HMEEIALTDILNRFLSSLSLEQRKIFMRRYWYLSPIKEIATEYGMSESKIKMSLFRSRNELKKLLEKEGI
-0.396
HMLLGDYIQKLRNQRGLSQQEFADKLGIGRSTLANYEQNKRSPDYETLIEISKFFNVSIDELLGV
-0.484
HMDRMMQPETWGRVYQWITDDPQVPDREEVLTLIKYHYGDFGKLMKLLHRLNEGKAWTYLSEHIFPRM
-0.123
HMATSLTEQEKLIFGLLKKQSPIELSSLKEQAGLSNKKWDKAIKGLSTQQLAKVTKTENGLFVHLLQ
0.148
HMNNESEGAIMLRQYSSLSAYLTKYNIDVNSKKAQQYASSLKLAQEKGSAEGQKYLSSISSELDD
-0.158
HMLDLSEEEQKIVSILEKQGNLQINSLVVEADIPVHKINAILFELEMKGVVRVLALSLIHISEP
0.0725
HMRETELPVTIISAGRILAENLHLAGRDGGWLEAELKRRSLTAEQVLLLTVDAAGTVYLVRKEDL
-0.0641
HMNYIEWKNTFKKYLYLLPIKEEKETLAYFDEQYNKLNPKDLDNVENIFSDPIDKAAFVVAFYLEMEDEIK
-0.612

Quick one: soluble fraction (log2) for HMKNANGYGSITKLKGNRRKPYMVRITVGRDENGFPIRKVLGYYSSKANAVAALSDYNREPYDI ?
-0.667

Now try HMIGKDLLGYEVFSESGDLVGILKDVMWLPHSDVYVITNGGKELLIPVIPEVVKGINHEQGVIVISPM .
0.0196

Now try HMFISVDGLIHMGRTHLVILGGVEFARGDMIPETGEVVKSIGADSVVLELPDTGMRRTLNFV .
-2.92

Now try HMLAQVSDEGPIRAMVEAVMARSTQQLEDYKNGKVKLRQYFFGEVMKAAKGKANPTVINKLLDEMLPETL .
0.255

Now try HMTPYEVLVYESLKQKILSGGYAAGEKIPEQSVSEELGVSRSPLRSAIRRLASEGLIEYYPYRGAFVKA .
-0.347

Now try HMAVNVNGIHLSSQQHEALVSIWRTGRMPEPHAGQKPWLWIQALRRRGLVSGNALRLTDKGRHIVQLLQ .
0.142

Now try HMNETRVDQAADLLLALLEKEPKSAAEILDEFEQAGFSKSGLYRAKDALGVVSIRKEGRWVWSLPHSLD .
-0.104
